# measuredTarget: T1, SLM2 (T-STAR) STAR domain (UniProt O75525 1-183)
# T1 sequence: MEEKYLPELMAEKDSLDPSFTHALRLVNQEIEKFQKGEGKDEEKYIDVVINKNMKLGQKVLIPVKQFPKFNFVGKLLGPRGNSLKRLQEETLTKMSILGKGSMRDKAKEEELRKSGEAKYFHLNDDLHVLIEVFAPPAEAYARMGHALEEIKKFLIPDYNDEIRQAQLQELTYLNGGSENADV
# runDescription: fluorescence polarization; FP buffer, salt, pH and temperature not given in the material; SD from three independent experiments
# measurementConditions: protein: recombinant; chain copies: 2; label: 5' fluorescein
quantityMeasured: Kd (µM)
Please reply with the bare figure in µM and do not write the unit itself.

Quick one: Kd for Nrxn2 WT (ssRNA) RNA: CCCAAUUAAUUAAUUAAUUAACUAACUAACUAACUUUAAAAACACGAUCUUAAA ?
5.9

Further, for Nrxn2 mutant 7 (ssRNA) RNA: CCCAAUUAAUUAAUUAAUUAACUAACCCACCCACCCUAAAAACACGAUCUUAAA ?
3.9
